Experiment: Pharmacokinetics/tissue distribution of GQD constituents in the livers of mice after oral GQD
Format: in vivo, Kunming mice
Conditions: both sexes, Kunming, mouse, in vivo, po, AUC0–24 h liv/AUC0–24 h cir
Description: The liver and the colon homogenates were prepared with 10 times (V: W) the volume of ascorbic acid solution (200 μg/ml). Then the homogenates were pretreated as plasma to obtain the tissue samples for LC-MS/MS analysis. […] Then the C-T curves of the constituents in the plasma and the tissue homogenates were respectively drawn and their pharmacokinetic parameters were respectively calculated. […] The results were expressed as mean ± SD.
QUANTITY: Kp

// query Query (compound): O=C1C[C@@H](c2ccc(O[C@@H]3O[C@H](CO)[C@@H](O)[C@H](O)[C@H]3O)cc2)Oc2cc(O)ccc21 ; field requested: Kp
// result ~5

====

Assay: Pharmacokinetics of GQD constituents in the systemic circulation of mice after oral GQD
Format: in vivo, Kunming mice
Settings: both, Kunming, mouse, systemic circulation plasma, po, […], systemic circulation plasma, mice, oral GQD […]; read-out: T1/2 (converted)
Procedure: Fifty-four Kunming mice were randomly divided into nine groups according to body weight and gender (3 male and three female in each group). […] After pretreatment, the concentrations of 19 major constituents of GQD in each sample were measured by the validated LC-MS/MS method (see “2.3”). Then the C-T curves of the constituents in the plasma and the tissue homogenates were respectively drawn and their pharmacokinetic parameters were respectively calculated. […]
Quick rule for you: half-life at 200 min or higher means class 1, lower means class 0.

// query Has COc1ccc2c(c1O)-c1c(O)c(OC)cc3c1[C@H](C2)[N+](C)(C)CC3 [Magnoflorine, magnoflorine] a recorded half-life greater than or equal to 200 min?
// result class 0

// query Please give the result for COc1cc2c(cc1O)CC[n+]1cc3c(OC)c(OC)ccc3cc1-2 [Jatrorrhizine, jatrorrhizine] too.
// result class 1

// query Please give the result for O=c1cc(-c2ccccc2)oc2cc(O)c(O)c(O)c12 [Baicalein, baicalein] too.
// result class 1

// query Please give the result for COc1c(O)cc(O)c2c(=O)cc(-c3ccccc3)oc12 [Wogonin, wogonin] too.
// result class 0

// query Please give the result for O=C(O)[C@H]1O[C@@H](Oc2cc3oc(-c4ccccc4)cc(=O)c3c(O)c2O)[C@H](O)[C@@H](O)[C@@H]1O [Baicalin, baicalin] too.
// result class 0

====

Hi there, I'd appreciate the recorded half-life for every entry that follows.
experiment: Pharmacokinetics of GQD constituents in the portal vein of mice after oral GQD; assay type: in vivo, Kunming mice; settings: both, Kunming, mouse; portal vein plasma, mice, oral GQD extract 6.1 g/kg; read-out: T1/2 (converted)
Reply numerically in h, unit not repeated.

// query Query (compound): O=c1c(-c2ccc(O)cc2)coc2c([C@@H]3O[C@H](CO)[C@@H](O)[C@H](O)[C@H]3O)c(O)ccc12 [Puerarin, puerarin] ; field requested: half-life
// result 2.9

// query Please give the result for COc1cc2c(cc1O)CC[n+]1cc3c(OC)c(OC)ccc3cc1-2 [Jatrorrhizine, jatrorrhizine] too.
// result 6.3

// query Please give the result for CC1(C)[C@@H](O)CC[C@]2(C)[C@H]3C(=O)C=C4[C@@H]5C[C@@](C)(C(=O)O)CC[C@]5(C)CC[C@@]4(C)[C@]3(C)CC[C@@H]12 [Glycyrrhetinic acid, glycyrrhetinic acid] too.
// result 4.7

// query Please give the result for COc1c(O)cc(O)c2c(=O)cc(-c3ccccc3)oc12 [Wogonin, wogonin] too.
// result 1

// query Please give the result for COc1ccc2cc3[n+](cc2c1OC)CCc1cc2c(cc1-3)OCO2 [Berberine, berberine] too.
// result 8

// query Please give the result for O=c1cc(-c2ccccc2)oc2cc(O)c(O)c(O)c12 [Baicalein, baicalein] too.
// result 1.3

// query Please give the result for COc1ccc2c(c1O)-c1c(O)c(OC)cc3c1[C@H](C2)[N+](C)(C)CC3 [Magnoflorine, magnoflorine] too.
// result 1.2

====

assay: Pharmacokinetics/tissue distribution of GQD constituents in the colons of mice after oral GQD; format: in vivo, Kunming mice; conditions: both, Kunming, mouse, colon (homogenate); colon, mice, oral GQD extract 6.1 g/kg; read-out: Tmax
QUANTITY: Tmax
Please state the value followed by its unit.

// query Query (molecule): O=c1cc(-c2ccccc2)oc2cc(O)c(O)c(O)c12 [Baicalein, baicalein] ; field requested: Tmax
// result 4 h

// query Please give the result for CC1(C)[C@@H](O)CC[C@]2(C)[C@H]3C(=O)C=C4[C@@H]5C[C@@](C)(C(=O)O)CC[C@]5(C)CC[C@@]4(C)[C@]3(C)CC[C@@H]12 [Glycyrrhetinic acid, glycyrrhetinic acid] too.
// result 4 h

// query Please give the result for O=C(O)[C@H]1O[C@@H](Oc2cc3oc(-c4ccccc4)cc(=O)c3c(O)c2O)[C@H](O)[C@@H](O)[C@@H]1O [Baicalin, baicalin] too.
// result 1 h

// query Please give the result for COc1ccc2cc3[n+](cc2c1O)CCc1cc2c(cc1-3)OCO2 [Berberrubine, berberrubine] too.
// result 4 h

====

test: Pharmacokinetics of GQD constituents in the systemic circulation of mice after oral GQD; type: in vivo, Kunming mice; settings: both, Kunming, mouse, in vivo; systemic circulation plasma, mice, oral GQD 6.1 g/kg; read-out: AUC0–24 h
QUANTITY: AUC(0-t) (ng·h/mL)
Reply numerically in ng·h/mL, unit not repeated.

// query Query (molecule): O=c1c(-c2ccc(O)cc2)coc2cc(O[C@@H]3O[C@H](CO)[C@@H](O)[C@H](O)[C@H]3O)ccc12 ; field requested: AUC(0-t)
// result 85.7

====

experiment: Pharmacokinetics/tissue distribution of GQD constituents in the colons of mice after oral GQD; format: in vivo, Kunming mice; settings: both, Kunming, mouse, in vivo; colon, mice, oral GQD extract 6.1 g/kg; read-out: T1/2 (converted)
QUANTITY: half-life (h)
Reply numerically in h, unit not repeated.

// query Query (molecule): O=c1c(-c2ccc(O)cc2)coc2cc(O[C@@H]3O[C@H](CO)[C@@H](O)[C@H](O)[C@H]3O)ccc12 ; field requested: half-life
// result 11

====

Hi there, I'd appreciate the recorded MRT for every entry that follows.
test: Pharmacokinetics of GQD constituents in the portal vein of mice after oral GQD; type: in vivo, Kunming mice; conditions: both, Kunming, mouse; portal vein plasma, mice, oral GQD extract 6.1 g/kg
Please state the value followed by its unit.

// query Query (molecule): COc1cc2c(cc1O)CC[n+]1cc3c(OC)c(OC)ccc3cc1-2 ; field requested: MRT
// result 4.8 h

// query Please give the result for COc1ccc2cc3[n+](cc2c1O)CCc1cc2c(cc1-3)OCO2 too.
// result 4.4 h

// query Please give the result for COc1c(O)cc(O)c2c(=O)cc(-c3ccccc3)oc12 too.
// result 3.3 h

// query Please give the result for CC1(C)[C@@H](O[C@H]2O[C@H](C(=O)O)[C@@H](O)[C@H](O)[C@H]2O[C@@H]2O[C@H](C(=O)O)[C@@H](O)[C@H](O)[C@H]2O)CC[C@]2(C)[C@H]3C(=O)C=C4[C@@H]5C[C@@](C)(C(=O)O)CC[C@]5(C)CC[C@@]4(C)[C@]3(C)CC[C@@H]12 too.
// result 3.7 h

// query Please give the result for CC1(C)[C@@H](O)CC[C@]2(C)[C@H]3C(=O)C=C4[C@@H]5C[C@@](C)(C(=O)O)CC[C@]5(C)CC[C@@]4(C)[C@]3(C)CC[C@@H]12 too.
// result 7 h

// query Please give the result for O=C(O)[C@H]1O[C@@H](Oc2cc3oc(-c4ccccc4)cc(=O)c3c(O)c2O)[C@H](O)[C@@H](O)[C@@H]1O too.
// result 4.5 h

====

Assay: Pharmacokinetics of GQD constituents in the portal vein of mice after oral GQD
Format: in vivo, Kunming mice
Conditions: both, Kunming, mouse, in vivo; portal vein plasma, mice, oral GQD extract 6.1 g/kg
Protocol: Fifty-four Kunming mice were randomly divided into nine groups according to body weight and gender (3 male and three female in each group). […] After pretreatment, the concentrations of 19 major constituents of GQD in each sample were measured by the validated LC-MS/MS method (see “2.3”). Then the C-T curves of the constituents in the plasma and the tissue homogenates were respectively drawn and their pharmacokinetic parameters were respectively calculated. […]
QUANTITY: Cmax (ng/mL)
Reply numerically in ng/mL, unit not repeated.

// query Query (compound): O=c1c(-c2ccc(O)cc2)coc2cc(O[C@@H]3O[C@H](CO)[C@@H](O)[C@H](O)[C@H]3O)ccc12 ; field requested: Cmax
// result 76.9

====

experiment: Pharmacokinetics of GQD constituents in the portal vein of mice after oral GQD; type: in vivo, Kunming mice; details: both, Kunming, mouse; portal vein plasma, mice, oral GQD extract 6.1 g/kg; read-out: AUC0–24 h
Quick rule for you: AUC(0-t) at 200 ng·h/mL or higher means true (1), lower means false (0).

// query Has COc1ccc2cc3[n+](cc2c1O)CCc1cc2c(cc1-3)OCO2 [Berberrubine, berberrubine] a recorded AUC(0-t) greater than or equal to 200 ng·h/mL?
// result false (0)

// query Please give the result for O=c1cc(-c2ccccc2)oc2cc(O)c(O)c(O)c12 [Baicalein, baicalein] too.
// result true (1)

// query Please give the result for COc1c(O)cc(O)c2c(=O)cc(-c3ccccc3)oc12 [Wogonin, wogonin] too.
// result true (1)

// query Please give the result for COc1cc2c(cc1O)CC[n+]1cc3c(OC)c(OC)ccc3cc1-2 [Jatrorrhizine, jatrorrhizine] too.
// result false (0)

// query Please give the result for COc1ccc2c(c1O)-c1c(O)c(OC)cc3c1[C@H](C2)[N+](C)(C)CC3 [Magnoflorine, magnoflorine] too.
// result false (0)

// query Please give the result for CC1(C)[C@@H](O[C@H]2O[C@H](C(=O)O)[C@@H](O)[C@H](O)[C@H]2O[C@@H]2O[C@H](C(=O)O)[C@@H](O)[C@H](O)[C@H]2O)CC[C@]2(C)[C@H]3C(=O)C=C4[C@@H]5C[C@@](C)(C(=O)O)CC[C@]5(C)CC[C@@]4(C)[C@]3(C)CC[C@@H]12 [Glycyrrhizic acid, glycyrrhizic acid] too.
// result true (1)

// query Please give the result for COc1ccc2cc3[n+](cc2c1OC)CCc1cc2c(cc1-3)OCO2 [Berberine, berberine] too.
// result true (1)
